Consider the following sequences and their measured PBM E-score readings.
- Study system: Upc2 (UniProt Q12151)
- Sequence: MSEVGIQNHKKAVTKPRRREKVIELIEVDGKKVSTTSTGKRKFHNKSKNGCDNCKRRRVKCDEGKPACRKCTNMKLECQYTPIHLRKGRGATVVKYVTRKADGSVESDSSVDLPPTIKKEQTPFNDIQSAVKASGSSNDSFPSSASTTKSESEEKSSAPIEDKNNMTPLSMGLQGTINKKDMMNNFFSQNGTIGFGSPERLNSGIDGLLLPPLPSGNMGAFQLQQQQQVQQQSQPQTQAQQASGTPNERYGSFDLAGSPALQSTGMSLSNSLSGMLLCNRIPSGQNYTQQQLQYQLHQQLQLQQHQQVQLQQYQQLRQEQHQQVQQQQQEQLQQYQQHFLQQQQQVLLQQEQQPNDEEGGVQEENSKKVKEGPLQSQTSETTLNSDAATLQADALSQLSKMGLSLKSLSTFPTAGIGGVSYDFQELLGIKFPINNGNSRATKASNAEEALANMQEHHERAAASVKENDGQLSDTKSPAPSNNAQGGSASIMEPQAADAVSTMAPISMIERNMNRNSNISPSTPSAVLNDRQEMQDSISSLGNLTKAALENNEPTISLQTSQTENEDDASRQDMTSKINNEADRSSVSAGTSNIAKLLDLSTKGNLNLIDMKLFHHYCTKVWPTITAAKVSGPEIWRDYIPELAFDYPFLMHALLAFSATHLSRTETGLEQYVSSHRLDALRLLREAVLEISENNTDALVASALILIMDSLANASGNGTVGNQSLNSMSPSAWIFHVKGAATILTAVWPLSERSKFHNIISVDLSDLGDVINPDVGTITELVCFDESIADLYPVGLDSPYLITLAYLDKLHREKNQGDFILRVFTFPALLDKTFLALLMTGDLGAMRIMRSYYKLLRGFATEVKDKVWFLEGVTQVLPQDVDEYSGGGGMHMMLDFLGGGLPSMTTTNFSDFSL
- Measurement notes: PBM E-score (8-mer binding enrichment) (E-score (-0.5 to 0.5)); higher = stronger / more preferred TF binding
- Condition description: protein concentration: 200 nM; construct: GST-full length
The full ranking holds about 33,000 sequences; the median of “E-score (-0.5 to 0.5)” is about -0.043, and the highest 2% start at about 0.37. Shown is part of a subset that was picked to be rich in the highest values.
The response must contain the number and no unit.

Recorded PBM E-score, per entry:
INSERT INTO results (sequence_data, measured_result) VALUES
  ('AAACGGTC', 0.344),
  ('GGCAGGAA', -0.24),
  ('GAAACAAA', 0.0262);

Lookup result for GGTCCACA ; measured PBM E-score: -0.166

// PBM E-score lookup, sequence = CCAACGAA , result: 0.109

Recorded result, ACACGGTC , PBM E-score: -0.099

// PBM E-score lookup, sequence = AAAACGAA , result: 0.283

Field PBM E-score (entry CAGTTTCA ) reads -0.223

Value of measured PBM E-score for the entry GATACGTA : 0.254

Input AATACGTC . Output PBM E-score: 0.0421

The recorded PBM E-score for GCGTACCA is 0.215

The sequence identified as CTGTAAAG registered its PBM E-score at -0.0138

Lab book: PBM E-score of ATACGGTC noted as 0.418

Field PBM E-score (entry AATACGAG ) reads 0.457

Memo: ACGTAAAG , reported PBM E-score: 0.308

The sequence identified as AATACGCT registered its PBM E-score at 0.212

The value of PBM E-score measured for the sequence AATACGAT turned out to be 0.395

Form field PBM E-score, entry GTACGGGA : 0.389

// sample ACACGGGC , its PBM E-score was -0.0605

Documented PBM E-score of GGACGGGA : -0.0849

The reported value for AAAATAGG in terms of PBM E-score is -0.0506

Record summary for ACACGGGA : reported PBM E-score = -0.129

Sample GCCCTCGC ; PBM E-score observed: 0.219

CCATTTCA has a reported PBM E-score of -0.241

Origin of the recorded values: the supplement of paper PMC3334620
